Tested on: MALME-3M melanoma
Experiment: NCI-60 one-dose screen, 48 h
Conditions: 10 µM
Experimental: Cells are grown in 96 well plates and exposed to the test compound for 48 hours. Compounds are tested at a single concentration, which is 10^-5 M for most compounds. The reported endpoint is percent growth (GI% or GIPRCNT), where numbers from 0 - 100% represent growth inhibition, and numbers from -100% - 0 represent cell death. For example, a value of 40 represents 60% growth inhibition. A value of 0 means no net growth occurred over the course of the experiment. […]
About 83,000 compounds went through this panel and 20% of them were active in at least one assay; those are over-represented in the sample as a whole. Calls of active or inactive are those of the source. The calls were made as follows: active = growth percent below 10; inactive = the rest.
Possible outcomes: T = active, F = inactive

| compound | label-value |
| --- | --- |
| O=C(Nc1ccccc1)Nc1cccc(-n2cc(-c3ccncc3)c(-c3ccc(O)c(Cl)c3)n2)c1 | F |
| O=C(C[P+](c1ccccc1)(c1ccccc1)c1ccccc1)C[P+](c1ccccc1)(c1ccccc1)c1ccccc1 | T |
| COc1ccc(N=C2C(=Nc3ccc(OC)cc3)N(c3ccc(N(C)C)cc3)C(=S)N2c2ccc(OC)cc2)cc1 | F |
| O=C(Nc1ccc(CO)cc1)c1ccccc1Nc1ccnc(C(F)(F)F)c1 | F |
| O=C1NC(=O)c2ncccc21 | F |
| CCCCCCN1C(=O)C2=C(c3ccc(Cl)cc3)Nc3c(c(C)nn3-c3ccccc3)C2c2ccccc21 (stereo unspecified) | F |
| CC1CN(Cc2ccccc2)C(=O)NC1=O (stereo unspecified) | F |
| COc1cc(Cl)cc(-c2nn(-c3cccc(NC(=O)Nc4cc(C(F)(F)F)cc(C(F)(F)F)c4)c3)cc2-c2ccncc2)c1 | T |
| C/C(N)=C(\C#N)C(=O)c1ccccc1 | F |
| c1ccc(CNc2ncnc3scc(-c4cccs4)c23)nc1 | F |
| O=C(Nc1ccc(OS(=O)(=O)c2ccccc2)cc1)C12CC3CC(CC(C3)C1)C2 | F |
| C#Cc1ccc(-n2c(/C=C/c3ccc(O)c(OC)c3)nc3ncccc3c2=O)cc1 | F |
| CC/C(=N\N=C(/CC)c1ccc(Br)cc1)c1ccc(Br)cc1 | F |
| COc1ccc(-c2csc(NC(=O)CSc3nc(C)c(-c4ccccc4)n3Nc3ccccc3)n2)cc1 | F |
| COc1cc(-c2nc(-c3nnc(-c4ccccc4Cl)o3)c3ccccn23)cc(OC)c1OC | F |
| Cc1nc2ccc(CN(C)c3ccc(C(=O)N[C@@H](CCC(=O)O)C(=O)O)s3)cc2c(=O)[nH]1 | F |
| O=C1C(c2ccccc2)C2C=CC(C2)N1O (stereo unspecified) | F |
| COc1ccc(-c2nnc(-c3c(-c4ccccc4)nc4ncccn34)o2)cc1OC | F |
| COc1ccccc1CNCCN1C(=O)c2ccc3c4c(ccc(c24)C1=O)C(=O)N(CCNCc1ccccc1OC)C3=O | T |
| CN(C)CCN1C(=O)c2cccc3cc(N)cc(c23)C1=O | F |
| COc1cc(/C=C2\Oc3cc(OCC(=O)c4ccccc4)ccc3C2=O)cc(OC)c1OC | F |

---

test system: SR leukemia; assay: NCI-60 one-dose screen, 48 h (100 = growth as untreated, 0 = no growth, -100 = all killed); conditions: 10 µM
The panel holds about 83,000 compounds, 20% with a hit somewhere; the sample as a whole holds those more often.
Each entry below lists one item and its recorded growth value.

| compound | experimental-target | growth, % |
| --- | --- | --- |
| COc1ccc(-c2nn(-c3cccc(NC(=O)Nc4cc(C(F)(F)F)cc(C(F)(F)F)c4)c3)cc2-c2ccncc2)cc1Cl | SR leukemia | -19.6 |
| Cc1ncc(-c2ccoc2)c(NC2CCCCCC2)n1 | SR leukemia | 96.1 |
| COc1cc(Cl)cc(-c2nn(-c3cccc(NC(=O)c4ccc(N5CCOCC5)c(C(F)(F)F)c4)c3)cc2-c2ccncc2)c1 | SR leukemia | 18.4 |
| Clc1nc(Cl)c2c(ncn2C/C=C\Cn2cnc3c(Cl)nc(Cl)nc32)n1 | SR leukemia | -66.3 |
| CCC(=O)N1C/C(=C/c2ccc(Br)cc2)C(=O)/C(=C/c2ccc(Br)cc2)C1 | SR leukemia | -35.6 |
| COc1ccc(C2=NN(C(=O)c3ccc(S(C)(=O)=O)cc3)C(c3ccc(OC)c(OC)c3)C2)c(OC)c1 (stereo not given) | SR leukemia | 97.2 |
| COC(=O)C1(C)Cc2cc(OC(C)=O)c(OC(C)=O)cc2N1 (stereo not given) | SR leukemia | 1.05 |
| O=C(N/N=C/c1ccccc1O)C(O)(c1ccccc1)c1ccccc1 | SR leukemia | 42.6 |
| Cc1[nH]nc2c1C(c1cnn(C)c1)C(C#N)=C(N)O2 (stereo not given) | SR leukemia | 89.3 |
| COc1ccc(/C=C2/CN(C(=O)c3ccccc3F)C/C(=C\c3ccc(OC)cc3)C2=O)cc1 | SR leukemia | -23.2 |
| CCCCOc1ccc(NC(=O)Nc2nnc(C)s2)cc1 | SR leukemia | 101 |
| COc1ccc(/C=C/C(=O)Nc2ccc(-c3nc4ccc(F)cc4s3)cc2)cc1 | SR leukemia | 80.8 |
| O=C(N/N=C/c1cc2ccccc2c2ccccc12)c1cc(O)c(O)c(O)c1 | SR leukemia | 9.56 |
| O=C1OCC2=C1C(c1cccc(Br)c1)c1cc3c(cc1N2CCO)CCC3 (stereo not given) | SR leukemia | 28.5 |
| CCCCCCCNc1nc(C=O)ncc1-c1ccc(C(F)(F)F)cc1 | SR leukemia | -2.53 |
| COc1cc(Cc2cc(-c3ccc(Cl)cc3)n[nH]c2=O)ccc1O | SR leukemia | -35.7 |
| CSCCCNC(=O)c1ccc2c(c1)/C(=C/c1[nH]c(C)cc1C)C(=O)N2 | SR leukemia | 10.7 |
| CCN(CCCCCCCCCCN1CC(=O)N(CCCCCCCCCCN(CC)Cc2ccccc2OC)CC1=O)Cc1ccccc1OC | SR leukemia | -61.3 |
| C#Cc1ccc(-n2c(/C=C/c3ccc(O)c(OC)c3)nc3ncccc3c2=O)cc1 | SR leukemia | 80.9 |
| Fc1ccc2nc(-c3nc(-c4ccccc4)n4ccccc34)[nH]c2c1 | SR leukemia | 38 |
